B1: POLD4 (parent)
chain: ITDSYPVVKRREGPAGHSKGELAP

Variants of: B1
Assay: protein stability index of a GFP-peptide fusion (GPS, HEK-293T) (PSI 1-6); higher = more stable;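 further: lentivirally expressed fusions sorted by FACS into six bins by GFP to DsRed ratio, PSI derived from sequencing read proportions per bin multiplied by bin number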
Conditions: c terminus: a fixed tail appended
Okay, here is how we bin by protein stability index: low bracket = under 3, middle bracket = from 3 up to 4, high bracket = 4 and over

Solved cases below.
P6A | middle bracket
A15F | low bracket
S4H | low bracket
R11C | middle bracket
R10Q | middle bracket
S4P | high bracket
V8N | high bracket
G20L | middle bracket
G13R | middle bracket
K19R | low bracket

In plain terms, what class is `L22V` ?
middle bracket

Lab log: `A15D` — assign protein stability index category
low bracket
